Where do these numbers come from? They come from paper PMC10692362.

Biological target: human ERα LBD (Homo sapiens, UniProt P03372)
Sequence (P03372 311-547 limits assumed): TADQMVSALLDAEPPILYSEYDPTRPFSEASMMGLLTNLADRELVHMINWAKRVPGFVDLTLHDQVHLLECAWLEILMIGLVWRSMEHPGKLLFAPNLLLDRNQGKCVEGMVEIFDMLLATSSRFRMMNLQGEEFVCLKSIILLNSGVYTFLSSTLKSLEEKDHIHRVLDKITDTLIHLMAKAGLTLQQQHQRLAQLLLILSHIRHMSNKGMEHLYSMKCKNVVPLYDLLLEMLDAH
Test: Competitive fluorescence polarization binding assay, ERα
Conditions: ratio of RBA ERα to RBA ERβ
Measured endpoint: α/β ratio
Please give the numeric answer without any surrounding text.

Q. Form field: reported α/β ratio of CC(C)=CC(=O)Nc1ccc(OS(=O)(=O)C2CC3OC2C(c2ccc(O)cc2)=C3c2ccc(O)cc2)cc1 (stereo not shown) [Compound 26c]
A. 2.50

Q. Form field: reported α/β ratio of CC(C)=CC(=O)Nc1ccc(C2=C(c3ccc(O)cc3)C3CC(S(=O)(=O)N(CC(F)(F)F)c4ccc(O)cc4)C2O3)cc1 (stereo not shown) [29c′]
A. 7.37

Q. Form field: reported α/β ratio of C=CC(=O)Nc1ccc(C2=C(c3ccc(O)cc3)C3OC2CC3S(=O)(=O)Oc2ccccc2)cc1 (stereo not shown) [Compound 28a]
A. 15.59

Q. Form field: reported α/β ratio of O=C(CBr)Nc1ccc(OS(=O)(=O)C2CC3OC2C(c2ccc(O)cc2)=C3c2ccc(O)cc2)cc1 (stereo not shown) [Compound 26f]
A. 2.08

Q. Form field: reported α/β ratio of C#CC(=O)Nc1ccc(OS(=O)(=O)C2CC3OC2C(c2ccc(O)cc2)=C3c2ccc(O)cc2)cc1 (stereo not shown) [Compound 26d]
A. 1.73

Q. Form field: reported α/β ratio of C=CC(=O)Nc1ccc(OS(=O)(=O)C2CC3OC2C(c2ccc(O)cc2)=C3c2ccc(O)cc2)cc1 (stereo not shown) [Compound 26a]
A. 2.08

Q. Form field: reported α/β ratio of COc1ccc(N(CC(F)(F)F)S(=O)(=O)C2CC3OC2C(c2ccc(O)cc2)=C3c2ccc(NC(=O)C=C(C)C)cc2)cc1 (stereo not shown) [Compound 29f]
A. 8.83

----------
Test: PK studies in mice
Format: in vivo, BALB/c female mice
Details: female, BALB/c, mouse, plasma, po, 20 mg/kg
Measured endpoint: half-life (h)
// units = h; emit number, no label

Q. Form field: reported half-life of CC(C)=CC(=O)Nc1ccc(C2=C(c3ccc(O)cc3)C3OC2CC3S(=O)(=O)N(CC(F)(F)F)c2ccc(O)cc2)cc1 (stereo not shown) [Compound 29c]
A. 5.81

----------
Biological target: human ERβ LBD (Homo sapiens, UniProt Q92731)
Sequence (Q92731 264-498 limits assumed): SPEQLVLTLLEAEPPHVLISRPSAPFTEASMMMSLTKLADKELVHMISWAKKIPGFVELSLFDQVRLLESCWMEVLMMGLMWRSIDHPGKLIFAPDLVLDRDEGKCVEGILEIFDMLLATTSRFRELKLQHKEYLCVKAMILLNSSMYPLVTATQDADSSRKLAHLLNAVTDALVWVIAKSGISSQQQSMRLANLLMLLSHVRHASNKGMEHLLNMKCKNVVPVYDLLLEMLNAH
Experiment: Competitive fluorescence polarization binding assay, ERβ
I'd appreciate it if you could supply Ki values for the items below.
// units = nM; emit number, no label

Q. Form field: reported Ki of CC(C)=CC(=O)Nc1ccc(C2=C(c3ccc(O)cc3)C3OC2CC3S(=O)(=O)Oc2ccccc2)cc1 (stereo not drawn) [Compound 28c]
A. 7.41

Q. Form field: reported Ki of CC(C)CC(=O)Nc1ccc(C2=C(c3ccc(O)cc3)[C@H]3O[C@@H]2CC3S(=O)(=O)N(CC(F)(F)F)c2ccc(O)cc2)cc1 (mixture of isomers) [Compound 29k]
A. 4.6

Q. Form field: reported Ki of CCN(c1ccc(OC)cc1)S(=O)(=O)C1CC2OC1C(c1ccc(O)cc1)=C2c1ccc(NC(=O)C=C(C)C)cc1 (stereo not drawn) [Compound 29j]
A. 13.1

Q. Form field: reported Ki of C/C=C/C(=O)Nc1ccc(OS(=O)(=O)C2CC3OC2C(c2ccc(O)cc2)=C3c2ccc(O)cc2)cc1 (stereo not drawn) [Compound 26b]
A. 16.7

Q. Form field: reported Ki of CC(C)=CC(=O)Nc1ccc(C2=C(c3ccc(O)cc3)C3OC2CC3S(=O)(=O)N(CC(F)(F)F)c2cccc(O)c2)cc1 (stereo not drawn) [Compound 29h]
A. 15.2

Q. Form field: reported Ki of CC(C)=CC(=O)Nc1ccc(C2=C(c3ccc(O)cc3)C3CC(S(=O)(=O)Oc4ccc(O)cc4)C2O3)cc1 (stereo not drawn) [Compound 28f]
A. 2.03
